// data source = paper PMC3514216

System: panel of 50 SH2 domains
experiment: SPOT peptide array probed with each of 50 GST-SH2 domains
Format: binding
experimentalParameters: SH2 domains with intensity >3X array mean; GST-SH2 0.25 μM, 1 mM DTT
measuredAttribute: Other SH2 domains bound (additional array-positive SH2 domains)

>>> df
                                  substance  valueobserved
0  ADNDpYIIPLPD [11-mer phosphotyrosine control peptide, PDGFRb (Y1021), reference compound]            Brk
1  VSEEYLDLRLT [11-mer peptide, FGFR4 (754)]            SHD
2  DDPSpYVNVQNL [11-mer phosphotyrosine control peptide, ShcA (Y426), reference compound]     Gads, Grap
3  PMHNpYVNTENV [11-mer phosphotyrosine peptide, FRS2 (Y392)]     Gads, Grap
